Attribution: paper PMC12738788

study-system: P. aeruginosa LptB2FG
assay-remarks: Native MS lipid binding to LptB2FG
condition-label: first lipid-binding event, sequential lipid-binding model, native MS; read-out: apparent dissociation constant KD(1)
quantity: Kd (µM)
The figure you give is taken to be in µM; do not add the unit.

Quick check: Kd of CCCCCCCCCCCCCC(=O)OC[C@H](COP(=O)(O)OCC(O)COP(=O)(O)OC[C@@H](COC(=O)CCCCCCCCCCCCC)OC(=O)CCCCCCCCCCCCC)OC(=O)CCCCCCCCCCCCC (stereo partly shown) [CDL] ?
4.8

###

study-system: P. aeruginosa LptB2FGC
assay-remarks: Native MS lipid binding to LptB2FGC
condition-label: first lipid-binding event, sequential lipid-binding model, native MS; read-out: apparent dissociation constant KD(1)
quantity: Kd (µM)
The figure you give is taken to be in µM; do not add the unit.

Item: CCCCCCCCCCCCCC(=O)OC[C@H](COP(=O)(O)OCC(O)COP(=O)(O)OC[C@@H](COC(=O)CCCCCCCCCCCCC)OC(=O)CCCCCCCCCCCCC)OC(=O)CCCCCCCCCCCCC (stereo partly shown) Test system: P. aeruginosa LptB2FGC Read-out: Kd Value: ?
3.07
